Where do these numbers come from? They come from patent US20220195052A1.

So I've got a bunch of binders here, and I need their pIC50 values.
biological target: T1, human αvβ1 integrin on cells (human, UniProt P06756 31-1048; P05556 21-798); assay: inhibition of adhesion of BCECF-labelled αvβ1-transfected cells to plate-coated LAP
T1 construct: also called stably transfected human αvβ1 cells; αvβ1 on MRC9 human lung fibroblasts
T1 sequence (P06756 31-1048 limits assumed, chain 1 of 2): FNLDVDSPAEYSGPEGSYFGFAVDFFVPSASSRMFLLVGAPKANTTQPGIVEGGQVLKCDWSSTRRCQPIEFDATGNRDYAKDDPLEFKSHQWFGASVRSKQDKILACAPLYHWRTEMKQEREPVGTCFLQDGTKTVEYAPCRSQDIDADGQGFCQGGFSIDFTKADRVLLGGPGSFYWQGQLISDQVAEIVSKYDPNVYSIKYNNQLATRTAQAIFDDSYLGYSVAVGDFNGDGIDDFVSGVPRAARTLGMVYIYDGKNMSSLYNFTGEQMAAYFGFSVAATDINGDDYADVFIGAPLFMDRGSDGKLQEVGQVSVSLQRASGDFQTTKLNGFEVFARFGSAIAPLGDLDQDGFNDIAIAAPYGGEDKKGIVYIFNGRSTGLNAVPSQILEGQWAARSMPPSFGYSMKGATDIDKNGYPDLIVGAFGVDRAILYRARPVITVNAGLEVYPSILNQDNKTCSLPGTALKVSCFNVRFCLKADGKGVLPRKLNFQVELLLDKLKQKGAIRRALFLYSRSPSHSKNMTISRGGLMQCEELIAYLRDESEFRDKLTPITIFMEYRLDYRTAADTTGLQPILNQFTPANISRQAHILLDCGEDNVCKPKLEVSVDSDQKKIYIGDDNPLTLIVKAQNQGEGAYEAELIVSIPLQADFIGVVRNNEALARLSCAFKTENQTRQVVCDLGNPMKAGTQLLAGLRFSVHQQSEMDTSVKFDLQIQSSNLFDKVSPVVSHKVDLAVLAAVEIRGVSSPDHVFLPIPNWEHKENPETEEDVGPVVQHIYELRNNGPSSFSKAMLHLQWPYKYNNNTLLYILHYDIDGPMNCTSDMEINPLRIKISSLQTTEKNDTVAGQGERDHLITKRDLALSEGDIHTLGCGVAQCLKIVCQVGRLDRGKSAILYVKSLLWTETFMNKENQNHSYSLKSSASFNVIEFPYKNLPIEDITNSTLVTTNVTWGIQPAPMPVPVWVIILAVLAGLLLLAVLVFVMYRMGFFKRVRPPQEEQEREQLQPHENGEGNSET
T1 sequence (P05556 21-798 limits assumed, chain 2 of 2): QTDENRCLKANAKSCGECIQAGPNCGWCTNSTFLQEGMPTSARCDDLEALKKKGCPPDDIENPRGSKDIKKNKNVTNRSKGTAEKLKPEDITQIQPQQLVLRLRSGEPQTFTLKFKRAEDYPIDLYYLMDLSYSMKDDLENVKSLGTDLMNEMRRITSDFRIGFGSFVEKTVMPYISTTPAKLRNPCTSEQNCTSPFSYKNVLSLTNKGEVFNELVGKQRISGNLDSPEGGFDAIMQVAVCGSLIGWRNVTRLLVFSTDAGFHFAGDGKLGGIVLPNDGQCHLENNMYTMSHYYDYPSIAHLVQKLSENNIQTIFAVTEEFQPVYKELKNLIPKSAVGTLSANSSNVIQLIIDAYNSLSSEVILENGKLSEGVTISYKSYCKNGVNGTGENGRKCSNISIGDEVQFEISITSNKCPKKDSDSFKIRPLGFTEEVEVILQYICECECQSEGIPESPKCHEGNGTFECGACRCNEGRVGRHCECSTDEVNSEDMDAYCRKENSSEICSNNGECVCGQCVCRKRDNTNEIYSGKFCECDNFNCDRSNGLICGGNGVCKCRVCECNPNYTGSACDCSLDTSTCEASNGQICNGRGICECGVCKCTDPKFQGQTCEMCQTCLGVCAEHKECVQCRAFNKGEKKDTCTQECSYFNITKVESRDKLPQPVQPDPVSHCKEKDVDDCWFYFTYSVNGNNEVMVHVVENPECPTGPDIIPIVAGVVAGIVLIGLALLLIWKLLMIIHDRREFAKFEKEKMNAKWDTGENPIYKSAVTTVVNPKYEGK
Units for pIC50: none; it is -log10 of a concentration expressed in mol/L.

Indicate its recorded pIC50; the binder in question is Exemplary Antibody 14 (antibody, V domains shown, expressed in yeast (Adimab platform) and purified on protein A; also called Ex. Ab 14) VH: QVQLVESGGGLVKPGGSLRLSCAASGFTFSDYYMSWIRQAPGKGLEWVSYISSSGSTIYYADSVKGRFTISRDNAKNSLYLQMNSLRAEDTAVYYCARERGNRGDTPRYYYMDVWGKGTTVTVSS VL: DIQMTQSPSSLSASVGDRVTITCRASQSISRYLNWYQQKPGKAPKLLIYAASSLQSGVPSRFSGSGSGTDFTLTISSLQPEDFATYYCQQSLVTPFTFGGGTKVEIK
8.66

Please look at this binder and report its pIC50: Exemplary Antibody 7 (antibody, V domains shown, expressed in yeast (Adimab platform) and purified on protein A; also called Ex. Ab 7) VH: QVQLVESGGGLVKPGGSLRLSCAASGFTFSDYYMSWIRQAPGKGLEWVSYISSSGSTIYYADSVKGRFTISRDNAKNSLYLQMNSLRAEDTAVYYCARGGPSRGDALAEYFQHWGQGTTVTVSS VL: EIVMTQSPATLSVSPGERATLSCRASQSVSSNLAWYQQKPGQAPRLLIYGASTRATGIPARFSGSGSGTEFTLTISSLQSEDFAVYYCQQLVNYPPITFGGGTKVEIK
8.37
